Form field: Activity (one value per entry).
# tested.system: Glutamate NMDA receptor; Grin1/Grin2c (Rattus norvegicus) (UniProt P35439+Q00961)
# assay.details: Positive allosteric modulation of recombinant rat GluN1/GluN2C receptor expressed in xenopus laevis oocyte assessed as potentiation of glutamate and glycine-induced current response at 30 uM at holding potential -40mV by two electrode voltage clamp method relative to control
Expressed in %, but write only the number.

- compound: "CCOc1ccc(OCC2c3ccc(OC(C)C)cc3CCN2C(=O)c2ccc(Cl)cc2)cc1 (stereo not drawn)"
  Activity, %: 101

Then there is this compound:
Look up Activity of CCOc1ccc2c(c1)CCN(C(=O)c1cccc(Cl)c1)C2COc1ccc(OC)cc1 (stereo not drawn) and report it.
285

* * *

# tested.system: Glutamate NMDA receptor; Grin1/Grin2c (Rattus norvegicus) (UniProt P35439+Q00961)
# assay.details: Positive allosteric modulation of recombinant rat GluN1/GluN2C receptor expressed in xenopus laevis oocyte assessed as potentiation of glutamate and glycine-induced current response at 30 uM at holding potential -40mV by two electrode voltage clamp method relative to control
Lab note: anything with Emax below 200% is marked rule met; values at 200% or higher are marked rule not met.

- compound: "CCOc1ccc(OCC2c3ccc(OC(C)C)cc3CCN2C(=S)c2cccc(C(F)(F)F)c2)cc1 (stereo unspecified)"
  tested.system: "Glutamate NMDA receptor; Grin1/Grin2c (Rattus norvegicus) (UniProt P35439+Q00961)"
  classification: "rule met"
- compound: "CCOc1ccc(OC[C@@H]2c3ccc(OC(C)C)cc3CCN2C(=O)c2cccc(F)c2)cc1"
  tested.system: "Glutamate NMDA receptor; Grin1/Grin2c (Rattus norvegicus) (UniProt P35439+Q00961)"
  classification: "rule met"
- compound: "CC(C)Oc1ccc(OCC2c3ccc(OC(C)C)cc3CCN2C(=S)c2cccc(Cl)c2)cc1 (stereo unspecified)"
  tested.system: "Glutamate NMDA receptor; Grin1/Grin2c (Rattus norvegicus) (UniProt P35439+Q00961)"
  classification: "rule met"
- compound: "COc1ccc(OCC2c3ccc(OC4CCCCC4)cc3CCN2C(=O)c2cccc(Cl)c2)cc1 (stereo unspecified)"
  tested.system: "Glutamate NMDA receptor; Grin1/Grin2c (Rattus norvegicus) (UniProt P35439+Q00961)"
  classification: "rule not met"
- compound: "CCOc1ccc(OCC2c3ccc(OC(C)C)cc3CCN2C(=S)c2ccc(F)c(Cl)c2)cc1 (stereo unspecified)"
  tested.system: "Glutamate NMDA receptor; Grin1/Grin2c (Rattus norvegicus) (UniProt P35439+Q00961)"
  classification: "rule met"

In the record for "COc1ccc(OC[C@H]2c3ccc(OC(C)C)cc3CCN2C(=S)c2cccc(Cl)c2)cc1" , is Emax less than 200%?
rule not met

* * *

# tested.system: Glutamate NMDA receptor; Grin1/Grin2b (Rattus norvegicus) (UniProt P35439+Q00960)
# assay.details: Positive allosteric modulation of recombinant rat GluN1/GluN2B receptor expressed in xenopus laevis oocyte assessed as potentiation of glutamate and glycine-induced current response at 30 uM at holding potential -40mV by two electrode voltage clamp method relative to control
Form field: Activity (one value per entry).
Expressed in %, but write only the number.

- compound: "CCOc1ccc(OCC2c3ccc(OC(C)C)cc3CCN2C(=O)c2ccccc2)cc1 (centres undefined)"
  Activity / %: 88
- compound: "CCC(CC)Oc1ccc2c(c1)CCN(C(=O)c1cccc(Cl)c1)C2COc1ccc(OC)cc1 (centres undefined)"
  Activity / %: 331
- compound: "CC(C)Oc1ccc(OCC2c3ccc(OC(C)C)cc3CCN2C(=O)c2cccc(F)c2)cc1 (centres undefined)"
  Activity / %: 179
- compound: "CCOc1ccc(OCC2c3ccc(N4CCOCC4)cc3CCN2C(=O)c2cccc(Cl)c2)cc1 (centres undefined)"
  Activity / %: 127
- compound: "COc1ccc(OCC2c3ccc(N4CCOCC4)cc3CCN2C(=O)c2cccc(Br)c2)cc1 (centres undefined)"
  Activity / %: 152
- compound: "CCOc1ccc(OCC2c3ccc(OC(C)C)cc3CCN2C(=O)c2cccc(F)c2)cc1 (centres undefined)"
  Activity / %: 147
- compound: "CCOc1ccc(OCC2c3ccc(OC(C)C)cc3CCN2C(=O)c2ccc(F)c(F)c2)cc1 (centres undefined)"
  Activity / %: 172
- compound: "CCOc1ccc(OCC2c3ccc(OC(C)C)cc3CCN2C(=O)c2cccc(Br)c2)cc1 (centres undefined)"
  Activity / %: 136

Look up Activity of COc1ccc(OCC2c3ccc(OC(C)C)cc3CCN2C(=O)c2cccc(I)c2)cc1 (centres undefined) and report it.
159

Look up Activity of COc1ccc(OCC2c3ccc(OC(C)C)cc3CCN2C(=O)c2cccc(Cl)c2)cc1 (centres undefined) and report it.
195

Look up Activity of COc1ccc(OCC2c3ccc(N4CCCCC4)cc3CCN2C(=O)c2cccc(Cl)c2)cc1 (centres undefined) and report it.
213

Look up Activity of CC(C)Oc1ccc2c(c1)CCN(C(=O)c1cccc(Cl)c1)C2COc1ccc(OC(F)(F)F)cc1 (centres undefined) and report it.
130

Look up Activity of COc1ccc(OCC2c3ccc(OC(C)C)cc3CCN2C(=O)c2cccc(O)c2)cc1 (centres undefined) and report it.
98

Look up Activity of COc1ccc(OCC2c3ccc(OC(C)C)cc3CCN2C(=O)c2ccc(OC)cc2)cc1 (centres undefined) and report it.
110

* * *

Form field: EC50 (one value per entry).
# tested.system: Glutamate NMDA receptor; Grin1/Grin2b (Rattus norvegicus, UniProt P35439+Q00960)
# assay.details: Positive allosteric modulation of recombinant rat GluN1/GluN2B receptor expressed in xenopus laevis oocyte assessed as potentiation of glutamate and glycine-induced current response at holding potential -40mV by two electrode voltage clamp method
Expressed in µM, but write only the number.

Some entries whose results are on file:
- molecule: "COc1ccc(OCC2c3ccc(OC(C)C)cc3CCN2C(=O)c2cccc(F)c2)cc1 (stereo not drawn)"
  EC50, µM: 36
- molecule: "COc1ccc(OCC2c3ccc(OC(C)C)cc3CCN2C(=O)c2ccc(Cl)cc2)cc1 (stereo not drawn)"
  EC50, µM: 12

Look up EC50 of CCOc1ccc(OCC2c3ccc(OC(C)C)cc3CCN2C(=S)c2cccc(Cl)c2)cc1 (stereo not drawn) and report it.
0.4

* * *

# tested.system: Glutamate NMDA receptor; Grin1/Grin2b (Rattus norvegicus) (UniProt P35439+Q00960)
# assay.details: Positive allosteric modulation of recombinant rat GluN1/GluN2B receptor expressed in xenopus laevis oocyte assessed as potentiation of glutamate and glycine-induced current response at 30 uM at holding potential -40mV by two electrode voltage clamp method relative to control
quantity.name: Emax (%)
Expressed in %, but write only the number.

Some entries whose results are on file:
- compound: "CC(C)Oc1ccc(OCC2c3ccc(OC(C)C)cc3CCN2C(=O)c2cccc(C(F)(F)F)c2)cc1 (stereo unspecified)"
  Emax (%): 157
- compound: "COc1ccc(OC[C@@H]2c3ccc(OC(C)C)cc3CCN2C(=O)c2cccc(Cl)c2)cc1"
  Emax (%): 276
- compound: "CC(C)Oc1ccc(OCC2c3ccc(OC(C)C)cc3CCN2C(=S)c2cccc(F)c2)cc1 (stereo unspecified)"
  Emax (%): 203

Look up Emax of COc1ccc(OCC2c3ccc(OC(C)C)cc3CCN2C(=O)c2cccc(I)c2)cc1 (stereo unspecified) and report it.
172

Look up Emax of COc1ccc(OCC2c3ccc(N(C)C(C)C)cc3CCN2C(=O)c2cccc(Cl)c2)cc1 (stereo unspecified) and report it.
235

Look up Emax of CCOc1ccc(OCC2c3ccc(OC(C)C)cc3CCN2C(=S)c2cccc(F)c2)cc1 (stereo unspecified) and report it.
184

* * *

Form field: Activity (one value per entry).
# tested.system: Glutamate NMDA receptor; Grin1/Grin2c (Rattus norvegicus) (UniProt P35439+Q00961)
# assay.details: Positive allosteric modulation of recombinant rat GluN1/GluN2C receptor expressed in xenopus laevis oocyte assessed as potentiation of glutamate and glycine-induced current response at 30 uM at holding potential -40mV by two electrode voltage clamp method relative to control
Expressed in %, but write only the number.

Look up Activity of CCOc1ccc(OCC2c3ccc(OCC)cc3CCN2C(=O)c2cccc(Cl)c2)cc1 (stereo unspecified) and report it.
91

* * *

# tested.system: Glutamate NMDA receptor; Grin1/Grin2c (Rattus norvegicus) (UniProt P35439+Q00961)
# assay.details: Positive allosteric modulation of recombinant rat GluN1/GluN2C receptor expressed in xenopus laevis oocyte assessed as potentiation of glutamate and glycine-induced current response at 30 uM at holding potential -40mV by two electrode voltage clamp method relative to control
quantity.name: Activity (%)
Expressed in %, but write only the number.

Some entries whose results are on file:
- molecule: "CCOc1ccc(OCC2c3ccc(OCC)cc3CCN2C(=O)c2cccc(F)c2)cc1 (stereo not given)"
  Activity, %: 77
- molecule: "CCOc1ccc(OCC2c3ccc(OCC(C)C)cc3CCN2C(=O)c2cccc(Cl)c2)cc1 (stereo not given)"
  Activity, %: 238
- molecule: "CC(C)Oc1ccc(OCC2c3ccc(OC(C)C)cc3CCN2C(=O)c2cccc(Cl)c2)cc1 (stereo not given)"
  Activity, %: 134
- molecule: "COc1cccc(OCC2c3ccc(OC(C)C)cc3CCN2C(=O)c2cccc(Cl)c2)c1 (stereo not given)"
  Activity, %: 132
- molecule: "CCOc1ccc(OCC2c3ccc(OC(C)C)cc3CCN2C(=O)c2cccc(-c3ccccc3)c2)cc1 (stereo not given)"
  Activity, %: 92
- molecule: "COc1ccc(OCC2c3ccc(N4CCCCC4)cc3CCN2C(=O)c2cccc(Cl)c2)cc1 (stereo not given)"
  Activity, %: 289
- molecule: "CC(C)Oc1ccc2c(c1)CCN(C(=O)c1cccc(F)c1)C2COc1ccc(OC(F)(F)F)cc1 (stereo not given)"
  Activity, %: 154
- molecule: "CCOc1ccc(OCC2c3ccc(OC(C)C)cc3CCN2C(=O)c2ccc(F)cc2)cc1 (stereo not given)"
  Activity, %: 107

Look up Activity of CCOc1ccc(OCC2c3ccc(OCC(C)C)cc3CCN2C(=O)c2cccc(F)c2)cc1 (stereo not given) and report it.
309

Look up Activity of COc1ccc(OCC2c3ccc(N(C)C(C)C)cc3CCN2C(=O)c2cccc(Cl)c2)cc1 (stereo not given) and report it.
404
